test system: K4 kissing-loop RNA reporter; assay: apparent KD of K4 kissing-loop reporter; higher = weaker reporter binding; settings: Eterna round: R107; input ligand: FMN 200 uM;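 note: bound reporter read as fluorescence of individual clusters on recovered sequencing chips by microscopy, with normalized cluster intensities fitted with a binding model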
Classify as follows. Reported apparent KD of K4 kissing-loop reporter greater than or equal to 100 nM: fulfilled. Reported apparent KD of K4 kissing-loop reporter below: not fulfilled.

Sequence code	Discrete label
UGAUAGGACAGAAGGAGCGGCAGUGAUGUUGCCAAAAGGAUAAGGUGUCAAAAGACACCCUGCCAGGUAGGUCGCUGUCCUAUCU	fulfilled
UGGACCAAGGAGUGAUGUUCCAUAUGUGAUACCAGCCACGAAAGUGGCCCUUGGCAGCACUGCCAGGACGAAAACGUCCGGUCCU [#SwitchBubble 13 #StaticStem #K4Early]	fulfilled
CGCGCGCGUUGAGAGGCGCGCGCGAAUGAUACCAGUAUAUAAGAAUACCCUUGGCAGCAUAAGAAAGAUAUAGUGAUGUUGUAUA [SSTheophA.E]	not fulfilled
GGUGUUGUUUGUGCCGCCUUCCUCGUUCCUCGAGGACCGGUACGGCCGCCACUCGAGUGAUGUUUGGGUAGCGAUCCCUGUUAGU [Bdazzled - #11 Exc. Tryptophan A]	fulfilled
UCCUGCAAUCGCCCACGAAAGUGGAUUGAUACCAGAGUCGAAAGACUCCCUUGGCAGCGAGUGAUGUUCGAAGCAGGUAAAUAAA	fulfilled

We now examine a further sequence.
Ask: Entry UCUGCAAAGUCGGCCGCCACUCCGGGCCCUAUAAAUGGGCGCAGUGAUGUUGCGGCUAGGCCUCUGAGGACCGGGACUUCGUAGA [Somale] : is its apparent KD of K4 kissing-loop reporter no less than 100 nM?
Reply: not fulfilled
